TARGET_OF_ASSAY: UniProtKB P11229
Sequence (P11229 1-460): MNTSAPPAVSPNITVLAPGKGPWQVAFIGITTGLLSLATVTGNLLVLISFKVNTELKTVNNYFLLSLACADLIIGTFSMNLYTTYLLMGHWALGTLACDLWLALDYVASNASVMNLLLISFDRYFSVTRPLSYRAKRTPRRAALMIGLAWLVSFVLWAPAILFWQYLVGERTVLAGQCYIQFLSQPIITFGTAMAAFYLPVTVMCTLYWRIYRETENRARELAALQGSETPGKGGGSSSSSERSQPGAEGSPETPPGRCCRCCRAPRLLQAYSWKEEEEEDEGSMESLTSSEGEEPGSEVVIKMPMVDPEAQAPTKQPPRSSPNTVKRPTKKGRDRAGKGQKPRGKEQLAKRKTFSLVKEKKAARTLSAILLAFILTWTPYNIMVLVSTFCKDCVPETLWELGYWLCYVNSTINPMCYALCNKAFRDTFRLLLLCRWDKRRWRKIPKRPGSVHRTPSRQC
METRIC_NAME: Kd (nM)
Give the number; nM is assumed, so skip it.

Reported Kd for C[C@@H]1OC(=O)[C@H]2C[C@H]3CCCC[C@@H]3[C@@H](/C=C/[C@H]3CCC[C@H](C)N3C)[C@@H]12 [himbacine] was 83
